Assay: protein stability index of a GFP-peptide fusion (yeast GPS) (PSI 1-4); higher = more stable; sorted into four equal gates, so the index is relative within each strain
Settings: pdr5∆
Please use Satisfied whenever protein stability index is not below 3, and Not satisfied whenever it is.

{"MONOMER SEQUENCE": "TPTDVIGVVSLTNGVTE [RRP6]", "GROUP": "Not satisfied"}
{"MONOMER SEQUENCE": "GLNSDAEEVRNFALTTL [ECM29]", "GROUP": "Satisfied"}
{"MONOMER SEQUENCE": "REAYIENFAKGEHISAI [SWP82]", "GROUP": "Satisfied"}
{"MONOMER SEQUENCE": "PQDDDSQSKMMSSQISS [MTR3]", "GROUP": "Satisfied"}
{"MONOMER SEQUENCE": "QDDADPMVSVMKMDKSP [RPT2]", "GROUP": "Not satisfied"}
{"MONOMER SEQUENCE": "YFLHLSVFNAELLKLLN [YCS4]", "GROUP": "Not satisfied"}
{"MONOMER SEQUENCE": "SRKQKIAKTFTVDVSSP [RPL22A]", "GROUP": "Satisfied"}
{"MONOMER SEQUENCE": "YEADQRKLFPNWIKPSD [PRP8]", "GROUP": "Not satisfied"}
{"MONOMER SEQUENCE": "VCQVTKFGLLLQVSAQE [ECM29]", "GROUP": "Not satisfied"}
{"MONOMER SEQUENCE": "EFVSYYYAHSIPSSKID [SNU114]", "GROUP": "Not satisfied"}
{"MONOMER SEQUENCE": "DGFDPRGNIKVMFATNR [RPT1]", "GROUP": "Satisfied"}
{"MONOMER SEQUENCE": "LDELQWKSPEWIQVFGL [MED6]", "GROUP": "Not satisfied"}
{"MONOMER SEQUENCE": "VNCLELLINTNFNKFFK [PCI8]", "GROUP": "Not satisfied"}
{"MONOMER SEQUENCE": "DDFTNELKAELDRYKRE [SEM1]", "GROUP": "Satisfied"}
{"MONOMER SEQUENCE": "LVPQLGHVGSVQISNIP [PRP8]", "GROUP": "Not satisfied"}
{"MONOMER SEQUENCE": "YLTGGQQPTASDNIASL [SMD1]", "GROUP": "Not satisfied"}
{"MONOMER SEQUENCE": "TILYLNVFHGLCAGANN [IRR1]", "GROUP": "Not satisfied"}
{"MONOMER SEQUENCE": "KGAGLSMGTMICGYTRK [PRE2]", "GROUP": "Not satisfied"}
{"MONOMER SEQUENCE": "LPYAIAGSGSTFIYGYC [PRE3]", "GROUP": "Not satisfied"}
{"MONOMER SEQUENCE": "QGGVLPNIHQNLLPKKS [HTA1]", "GROUP": "Not satisfied"}
{"MONOMER SEQUENCE": "TEENKANTNSVTSMEAA [YIL149C/MLP2]", "GROUP": "Satisfied"}
{"MONOMER SEQUENCE": "IYLLFQSSGKLKEYLDL [YDL116W/NUP84]", "GROUP": "Not satisfied"}
{"MONOMER SEQUENCE": "TSAGIMDHEEARRKHVS [RPS22A]", "GROUP": "Not satisfied"}
{"MONOMER SEQUENCE": "LATPVQFELLSRRWRQR [BRR2]", "GROUP": "Not satisfied"}
{"MONOMER SEQUENCE": "KPIQNGEIIDISAFTQF [ARP9]", "GROUP": "Not satisfied"}
{"MONOMER SEQUENCE": "LGWDLDAIIPFAAIPEQ [FAS2]", "GROUP": "Satisfied"}
{"MONOMER SEQUENCE": "TEYCVGDYVAYQLNGVA [YMR129W/POM152]", "GROUP": "Satisfied"}
{"MONOMER SEQUENCE": "KTKTSLLPTIKRTICKK [RPR2]", "GROUP": "Satisfied"}
{"MONOMER SEQUENCE": "RNHKHALHGTAKALAAA [RPL29]", "GROUP": "Not satisfied"}
{"MONOMER SEQUENCE": "GLSVTQKVFVRSRNGGA [DIS3]", "GROUP": "Not satisfied"}
{"MONOMER SEQUENCE": "ETENSESIASSNTYKEE [MCD1]", "GROUP": "Not satisfied"}
{"MONOMER SEQUENCE": "SAKGPEIIPLQDYYIIG [MED6]", "GROUP": "Satisfied"}
{"MONOMER SEQUENCE": "KSKREEEAKSVLPAATK [ARP9]", "GROUP": "Not satisfied"}
{"MONOMER SEQUENCE": "EGIEKMGVRTFSQKEMA [FAS2]", "GROUP": "Not satisfied"}
{"MONOMER SEQUENCE": "FRRDFLLREYDILSQIL [YJL039C/NUP192]", "GROUP": "Not satisfied"}
{"MONOMER SEQUENCE": "ILQILDQDELVQPPLDK [SWP82]", "GROUP": "Not satisfied"}
{"MONOMER SEQUENCE": "LFGNKPTTTTGGLFGNS [YGR119C/NUP57]", "GROUP": "Not satisfied"}
{"MONOMER SEQUENCE": "QILQGICKNCSAILLSE [RPO31]", "GROUP": "Not satisfied"}
{"MONOMER SEQUENCE": "TRLWGSVYYHKGNFRTK [SNU114]", "GROUP": "Satisfied"}
{"MONOMER SEQUENCE": "MPNDNKTPNRSSTPKFT [SIR4]", "GROUP": "Not satisfied"}
{"MONOMER SEQUENCE": "PTQITQYTQRLSKLEKA [SRP68]", "GROUP": "Not satisfied"}
{"MONOMER SEQUENCE": "IRTQVNTGGESVVKKED [RGR1]", "GROUP": "Satisfied"}
{"MONOMER SEQUENCE": "IKKIVADLKKGKDLSPA [QCR2]", "GROUP": "Satisfied"}
{"MONOMER SEQUENCE": "EAEIECFDSTTGRDAGF [RRP40]", "GROUP": "Satisfied"}
{"MONOMER SEQUENCE": "FLERFDFYTRHHFTCEI [ITC1]", "GROUP": "Not satisfied"}
{"MONOMER SEQUENCE": "IDDNYIVVVIEIITSLS [SRB8]", "GROUP": "Not satisfied"}
{"MONOMER SEQUENCE": "VRNKSYPVYTRLRTLCR [DIS3]", "GROUP": "Not satisfied"}
{"MONOMER SEQUENCE": "HPFIPLLKEKPNALKPL [RRP6]", "GROUP": "Not satisfied"}
{"MONOMER SEQUENCE": "SKGSFINIAQMSACVGQ [RPO21]", "GROUP": "Not satisfied"}
{"MONOMER SEQUENCE": "MFILSKIADLVRIPPDQ [RPC25]", "GROUP": "Not satisfied"}
{"MONOMER SEQUENCE": "KMVAKGLNDLVEQYKFR [BRR2]", "GROUP": "Satisfied"}

###

Assay: protein stability index of a GFP-peptide fusion (yeast GPS) (PSI 1-4); higher = more stable; sorted into four equal gates, so the index is relative within each strain
Settings: ubr1∆
sequences and their reported protein stability index

{"MONOMER SEQUENCE": "AVNMTQNIMTLPDGKNG [MED6]", "protein stability index": 3.07}
{"MONOMER SEQUENCE": "LPNETINDRNDRAIRKT [DIS3]", "protein stability index": 2.29}
{"MONOMER SEQUENCE": "GESEKSSDVDMDDEEWR [RPC53]", "protein stability index": 3.33}
{"MONOMER SEQUENCE": "FIKLQKIDIIELQKSLS [FAS1]", "protein stability index": 2.28}
{"MONOMER SEQUENCE": "EFIFGTYNMIDAAAEKR [ARP7]", "protein stability index": 3.12}
{"MONOMER SEQUENCE": "AILQEKILSILNRSHFA [ECM29]", "protein stability index": 2.35}
{"MONOMER SEQUENCE": "AFKHKRALVEHIIQAKA [RPL19A]", "protein stability index": 3.19}
{"MONOMER SEQUENCE": "HRLTLEDPVTVEYLTRY [PRE6]", "protein stability index": 2.68}
{"MONOMER SEQUENCE": "LEQKIHEVEEILNELQP [SMC1]", "protein stability index": 3.14}
{"MONOMER SEQUENCE": "SFCGFLLYYIPSLELSA [YJR042W/NUP85]", "protein stability index": 1.95}
{"MONOMER SEQUENCE": "TWEECVFFDDDPLYDIT [REC8]", "protein stability index": 3.08}
{"MONOMER SEQUENCE": "TPKVVRSQDQENPAFLP [SEC65]", "protein stability index": 2.65}
{"MONOMER SEQUENCE": "EYTINLHKRLHGVSFKK [RPL31A]", "protein stability index": 1.61}
{"MONOMER SEQUENCE": "RNAALRAKAEAAEFRYK [SCL1]", "protein stability index": 3}

These entries and their values trace back to the supplement of paper PMC9732359.
